Entries and their The Percentage of Triglyceride Increased in 3T3-L1 Cells values follow.
System: 3T3-L1 cells
Assay: Insulin-sensitizing activity in 3T3-L1 preadipocyte model, triglyceride accumulation as indication of cell differentiation
Assay type: cell-based
Conditions: test compound 0.1 μmol/L; with IBMX, DEX and insulin; average of 3 pores (rosiglitazone n = 22, mean ± SD)
Numbers only; they are read as %.

[[record]]
compound = "Cc1oc(-c2ccccc2)nc1CCOc1ccc2c(c1)OC(=O)C(C(=O)O)C2 (stereo not shown)"
target_of_assay = "3T3-L1 cells"
units_symbol = "%"
number = 29.28


Give the reported The Percentage of Triglyceride Increased in 3T3-L1 Cells for this compound. O=C(O)c1cc2ccc(OCc3ccccc3)cc2oc1=O
18.31
